Reference for the values: patent US20110038869A1

Target: T1, CD32bECDHis (human, UniProt P31994 43-223, limits assumed)
T1 construct: Produced in HEK-293F cells; also called extracellular domain of CD32b with C-terminal His tag; soluble CD32b
T1 sequence (looked up): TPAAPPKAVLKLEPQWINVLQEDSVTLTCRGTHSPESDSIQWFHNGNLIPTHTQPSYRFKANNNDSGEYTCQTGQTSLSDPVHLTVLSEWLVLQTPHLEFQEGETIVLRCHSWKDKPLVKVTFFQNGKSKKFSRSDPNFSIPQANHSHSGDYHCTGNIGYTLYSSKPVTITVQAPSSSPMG
Test: TR-FRET competition against HuMab-KLH-AlexaFluor 647

BINDER | % of maximal Fab-mediated inhibition
Antibody 028 (antibody, V domains shown, List 1 gives no VL for antibody 028; The VL is therefore uncertain; also called HuMab 028) VH: QVQVVQSGAEVKKPGASVKVSCKTSGYTFTSYGISWVRQAPGQGLEWMGWISAYNGNTKYAQKLQGRLTMTTDTSTTTAYMELRSLRSDDTAVYYCARDSAAHGMDVWGQGTTVSVSS VL: DIQMTQSPSSLSASVGDRVTITCRASQGISSWLAWYQQKPEKAPKSLIYAASSLQSGVPSRFSGSRSGTDFTLTISSLQPEDFATYYCQQYNSYPYTFGQGTKLEIKR | ~70%
Antibody 024 (antibody, V domains shown, also called HuMab 024) VH: QVQLVQSGAEVKKPGASVKVSCKASGYTFTSYGLSWVRQAPGQGLEWMGWISPYNGNTHYAQKLQGRVTMTTDTSTSTAYMDLRSLRSDDTAVYYCARDSAAHGMDVWGQGTTVTVSS VL: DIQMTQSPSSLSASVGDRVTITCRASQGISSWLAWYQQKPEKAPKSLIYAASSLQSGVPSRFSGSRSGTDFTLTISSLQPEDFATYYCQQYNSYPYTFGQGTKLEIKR | ~70%
Antibody 026 (antibody, V domains shown, Human antibody; also called HuMab 026) VH: QVQLVQSGAEVKKPGASVKVSCKASGYTFTSYGLSWVRQAPGQGLEWMGWISAYNGNTNYAQKLQGRVTMTTDTSTSTAYMDLRSLRSDDTAVYYCARDSAAHGMDVWGQGTTVTVSS VL: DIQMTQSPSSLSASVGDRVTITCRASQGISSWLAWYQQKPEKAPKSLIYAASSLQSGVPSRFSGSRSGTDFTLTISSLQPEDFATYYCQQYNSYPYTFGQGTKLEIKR | ~70%
Antibody 022 (antibody, V domains shown, also called HuMab 022) VH: QVQLVQSGAEVKKPGASVKVSCKASGYTFTSYGLSWVRQAPGQGLEWMGWISPYNGNTHYAQKLQGRVTMTTDTSTSTADMDLRSLRSDDTAVYYCARASAAHGMDVWGQGTTVTVSS VL: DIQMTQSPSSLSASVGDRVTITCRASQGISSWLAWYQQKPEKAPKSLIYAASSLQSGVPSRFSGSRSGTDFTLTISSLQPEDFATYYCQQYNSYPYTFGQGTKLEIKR | ~70%
Antibody 063 (antibody, human IgG1, V domains shown, Human antibody; also called HuMab 063) VH: EVQLLESGGGLVQPGGSLRLSCAASGFTFSSYAMSWVRQAPGKGLEWVSAISDSGGSTYYADSVKGRFTISRDNSKNTLYLQMNSLRAEDTAAYYCAKEIAVALFDYWGQGTLVTVSS VL: EIVLTQSPATLSLSPGERATLSCRASQSVSSYLAWYQQKPGQAPRLLIYDASNRATGIPARFSGSGSGTDFTLTISSLEPEDFAVYYCQQRSSWPPYTFGQGTKLEIKR | ~70%
Antibody 020 (antibody, V domains shown, also called HuMab 020) VH: QVQLVQSGGEVKKPGASVKVSCKTSGYTFTSYGISWVRQAPGQGLEWMGWISAYNGNTKYAQKLQGRLTMTTDTSTTTAYMELRSLRSDDTAVYYCARDSAAHGMDVWGQGTTVTVSS VL: DIQMTQSPSSLSASVGDRVTITCRASQGISSWLAWYQQKPEKAPKSLIYAASSLQSGVPSRFRGSGSGTDFTLTISSLQPEDFATYYCQQYNSYPYTFGQGTKLEIKR | ~70%
